B1: HDV Ribozyme (parent)
chain: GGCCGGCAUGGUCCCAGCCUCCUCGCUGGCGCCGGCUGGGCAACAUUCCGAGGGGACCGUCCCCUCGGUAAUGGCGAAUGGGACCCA

Variants of: B1
Experiment: self-cleavage, relative activity (ratio to wild type); higher = more cleavage; co-transcriptional
reported_property: self-cleavage
Please respond with just the number, no unit label.

Given item U9G A43C , the value recorded as its self-cleavage is 0.415

Given item U69A C84G , the value recorded as its self-cleavage is 0.578

Given item A42C C64G , the value recorded as its self-cleavage is 0.277

Given item U23G C41G , the value recorded as its self-cleavage is 0.597

Given item G11C C41A , the value recorded as its self-cleavage is 0.185

Given item G68U A70G , the value recorded as its self-cleavage is 0.95

Given item C66A G68U , the value recorded as its self-cleavage is 0.616

Given item C63U G74U , the value recorded as its self-cleavage is 0.583

Given item C26A G35C , the value recorded as its self-cleavage is 0.429

Given item G31C U65C , the value recorded as its self-cleavage is 0.361

Given item G59A G82U , the value recorded as its self-cleavage is 0.467

Given item G39U C63A , the value recorded as its self-cleavage is 0.598

Given item U20G C49G , the value recorded as its self-cleavage is 0.361

Given item C36G U37C , the value recorded as its self-cleavage is 0.158

Given item G39C C49U , the value recorded as its self-cleavage is 0.166

Given item C33U A56U , the value recorded as its self-cleavage is 0.758

Given item A43C C44U , the value recorded as its self-cleavage is 0.923

Given item A51U U79A , the value recorded as its self-cleavage is 1.09

Given item C49A G53U , the value recorded as its self-cleavage is 0.608

Given item G38U C85U , the value recorded as its self-cleavage is 0.269

Given item G2A C21G , the value recorded as its self-cleavage is 0.0528

Given item G5A C26U , the value recorded as its self-cleavage is 0.511

Given item U47C A70C , the value recorded as its self-cleavage is 0.739

Given item C4G C18G , the value recorded as its self-cleavage is 0.0282

Given item A56U G67A , the value recorded as its self-cleavage is 1.17

Given item C18A U47A , the value recorded as its self-cleavage is 0.0692

Given item G6A G40U , the value recorded as its self-cleavage is 0.911

Given item U47G G52U , the value recorded as its self-cleavage is 0.877

Given item G6U C41G , the value recorded as its self-cleavage is 0.237

Given item U20C A51G , the value recorded as its self-cleavage is 0

Given item C7G G74C , the value recorded as its self-cleavage is 0.0475

Given item G25C C63G , the value recorded as its self-cleavage is 0.0875

Given item G39A G40A , the value recorded as its self-cleavage is 0.786

Given item A16C G17A , the value recorded as its self-cleavage is 0.519

Given item G68A C86G , the value recorded as its self-cleavage is 1.07

Given item G25A A70C , the value recorded as its self-cleavage is 0.138

Given item C57U G82C , the value recorded as its self-cleavage is 0.208

Given item C18G G34A , the value recorded as its self-cleavage is 0.136

Given item G25C G35A , the value recorded as its self-cleavage is 0.0346

Given item C36A A43G , the value recorded as its self-cleavage is 0.277

Given item G53U G80U , the value recorded as its self-cleavage is 0.256

Given item G59U U72A , the value recorded as its self-cleavage is 0.665

Given item C22G G50A , the value recorded as its self-cleavage is 0.0504

Given item C26G G68A , the value recorded as its self-cleavage is 0.787

Given item C36A A51U , the value recorded as its self-cleavage is 0.17

Given item G29C C75U , the value recorded as its self-cleavage is 0.0287
